Source of measurements: the supplement of paper PMC12669032

Tested on: Parabacteroides distasonis
Assay: growth AUC relative to DMSO control (median of replicates) (fraction); higher = more growth (less inhibition), active = hit call of the paper
Details: 20 µM; 24 h
Field: growth AUC. Provide a value for each of the compounds that follow.
Just the number, please.

Exercise: Query: growth AUC; subject: CNC(=O)O/N=C/C(C)(C)S(C)(=O)=O
Key: 1.04

Exercise: Could you tell me which growth AUC is on file for O=S(=O)(c1ccc(Cl)cc1)c1cc(Cl)c(Cl)cc1Cl ?
Key: 0.971

Exercise: # lookup: growth AUC of COP(=O)(OC)Oc1ccc(SC)c(C)c1
Key: 1.02

Exercise: Reported growth AUC for Cc1cc(C)nc(NC(=O)NS(=O)(=O)c2ccccc2C(=O)OC2COC2)n1 : what is it?
Key: 1.02

Exercise: Request the reported growth AUC associated with FC(F)C(F)(F)OCC(Cn1cncn1)c1ccc(Cl)cc1Cl (stereo not drawn)
Key: 0.951

Exercise: Fill blank: measured growth AUC of the compound Cc1c(N)cccc1N is ____.
Key: 0.995

Exercise: // returns reported growth AUC for input COC(=O)N(C(=O)N1CO[C@@]2(C(=O)OC)Cc3cc(Cl)ccc3C2=N1)c1ccc(OC(F)(F)F)cc1
Key: 0.808

Exercise: Which value of growth AUC has been reported for COC(=O)c1cc(Oc2ccc(Cl)cc2Cl)ccc1[N+](=O)[O-] in the records?
Key: 0.449

Exercise: What growth AUC value was documented for this compound, Cc1c(F)c(F)c(COC(=O)[C@@H]2[C@H](/C=C(\Cl)C(F)(F)F)C2(C)C)c(F)c1F (mixture of isomers) ?
Key: 0.976

Exercise: What does the data say about its growth AUC? Entry: O=c1c2cc(F)ccc2nc(-n2cncn2)n1-c1ccc(Cl)cc1Cl
Key: 1.02

Exercise: So what's the measured growth AUC for this one? O=C1C=C(N(Cc2ccc(Cl)nc2)CC(F)F)CO1
Key: 0.999

Exercise: Which value of growth AUC has been reported for O=C(O)CCl in the records?
Key: 0.949

Exercise: // growth AUC lookup, key: CC1(C)C(C=C(Cl)Cl)C1C(=O)OC(C#N)c1ccc(F)c(Oc2ccccc2)c1 (mixture of isomers)
Key: 0.96

Exercise: # query: growth AUC of entry Nc1nc(N)nc(N)n1
Key: 1.23

Exercise: Name the recorded growth AUC for CCCCC(C#N)(Cn1cncn1)c1ccc(Cl)cc1 (stereo not drawn) .
Key: 1.02

Exercise: Which growth AUC is reported for this compound? CCOC(=O)Nc1cccc(OC(=O)Nc2ccccc2)c1
Key: 0.967

Exercise: Which value of growth AUC has been reported for CCOC(=O)C(O)(c1ccc(Cl)cc1)c1ccc(Cl)cc1 in the records?
Key: 0.823

Exercise: Recorded growth AUC for CN(C)C(CSS(=O)(=O)[O-])CSS(=O)(=O)O.[Na+] , please?
Key: 0.979

Exercise: Fill in the blank: the reported growth AUC of Clc1ccc(Cl)cc1 is ____.
Key: 0.999

Exercise: Recorded growth AUC for CC1(C)[C@H](/C=C(\Cl)C(F)(F)F)[C@@H]1C(=O)O[C@@H](C#N)c1cccc(Oc2ccccc2)c1 , please?
Key: 0.985

Exercise: Which growth AUC value is on record for CNC(=S)S ?
Key: 1.03

Exercise: I'd like to know its growth AUC. The compound in question is CNC(=O)/C(=N\OC)c1ccccc1Oc1ccccc1
Key: 1.02

Exercise: Query (compound): CCC1(C(=O)NC(C)c2ccc(Cl)cc2)C(C)C1(Cl)Cl (stereo not drawn) ; field requested: growth AUC
Key: 0.641
